test system: MCC-13; experiment: qHTS assay to identify novel small-molecules to repurpose for Merkel cell carcinoma treatment (AID 1296009); conditions: MCC and control cell lines, CellTiter-Glo viability, 72 h; series mostly up to 46 µM; note: nearly all actives have a fitted effect of over 60% in size
Records with an inconclusive call do not appear. The source made the active and inactive calls. Calls come from the whole dose curve; as a rule, active = well fitted inhibition curve with a large enough effect; inconclusive = small, poorly fitted or top-dose-only effect; inactive = flat fitted curve, though single readings scatter.
Return exactly one item of active, inactive

compound="CCOP(=O)(NC(C)C)Oc1ccc(SC)c(C)c1 (stereo not given)" answer_label=inactive
compound=O=c1[nH]c2ccc(Cl)cc2c(N[C@@H]2CN3CCC2CC3)c1-c1nc2ccccc2[nH]1 answer_label=active
compound=O=[N+]([O-])c1ccc([As](=O)(O)O)cc1 answer_label=inactive
compound=O=C(Nc1ccccc1-c1ccc(Cl)cc1)c1cccnc1Cl answer_label=inactive
compound=CC(=O)Nc1ccc(OC[C@](C)(O)C(=O)Nc2ccc([N+](=O)[O-])c(C(F)(F)F)c2)cc1 answer_label=inactive

Query string: For `Cc1c(C(=O)Nc2cccc(C(F)(F)F)c2)cc(-c2ccccc2)n1CCCN1CCOCC1` , which call appears in the assay record?
Result string: inactive

Query string: Can you check `CSCC[C@@H](NC(=O)[C@@H](Cc1ccccc1)NC(=O)CNC(=O)CNC(=O)[C@@H](N)Cc1ccc(O)cc1)C(=O)O` next?
Result string: inactive

Query string: Can you check `Cc1ccccc1-n1c(Cn2ncc3c(N)ncnc32)nc2cccc(C)c2c1=O` next?
Result string: active

Query string: Can you check CCO/N=C(\CC)C1=C(O)CC(c2c(C)cc(C)cc2C)CC1=O (stereo not given) next?
Result string: inactive

Query string: Can you check `c1ccc2c(CN3CCNCC3)cccc2c1` next?
Result string: inactive

Query string: Can you check `CCCN(CCC)c1c([N+](=O)[O-])cc(S(N)(=O)=O)cc1[N+](=O)[O-]` next?
Result string: active

* * *

Property: z-score; scope: individual compounds
assay: qHTS for identification of novel therapeutic agents for treatment of microphthalmiaassociated transcription factor (MiT) renal cell carcinoma (RCC) (AID 1963991); details: TFE3-RCC viability, CellTiter-Glo, 48 h; measured here: UOK124 Z-AUC; stronger effect = lower value;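 note: curves scaled with 100% = DMSO viability and 0% = empty wells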
Inconclusive results are not listed.
Would you mind answering with just the numeric figure?

compound="NC1=NC(=O)N2CC12 (stereo not given)" measured_number=1.24

Query string: # get_value(readout='z-score', item= `Cc1ccccc1-n1c(Cn2cnc3c(N)ncnc32)nc2cccc(C)c2c1=O` )
Result string: -1.13

Query string: Can you check `C1=C2CCCN[C@H]2[C@@H]2C[C@H]1[C@@H]1CCCCN1C2` next?
Result string: 0.828

Query string: Can you check `CCN1C[C@]2(OC(=O)c3ccccc3NC(C)=O)CC[C@H](OC)[C@@]34[C@H]5CC6[C@@H](OC)C[C@](O)(C(C[C@@H]23)[C@@H]14)[C@@]5(O)[C@@H]6OC` next?
Result string: 0.783

Query string: Can you check `CCc1c(C(=O)C(N)=O)c2c(OCC(=O)O)cccc2n1Cc1ccccc1` next?
Result string: 0.644

Query string: Can you check CCOP(=O)(OCC)C(C)NC(=O)N(CCCl)N=O (stereo not given) next?
Result string: -0.441

Query string: Can you check `CCCN1CCO[C@@H]2c3cc(O)ccc3OC[C@@H]21` next?
Result string: 0.425

* * *

Tested on: CP325
Assay: qHTS profiling for inhibitors of Plasmodium falciparum proliferation (AID 504749); note: nearly all actives have a fitted effect of over 60% in size
Settings: P. falciparum in erythrocytes, SYBR Green DNA, 72 h; series mostly up to 28.7 µM
Method: NIH National Institute of Allergy and Infectious Diseases [NIAID] NIH Chemical Genomics Center [NCGC] […] Because mature erythrocytes lack DNA, only Plasmodium-derived DNA is detected. NCGC Assay Protocol Summary: The SYBR Green viability assay was adapted from a method described previously (Plouffe et al., 2008). […] The following morning, fluorescence intensity at 485(14) nm excitation and 535(25) nm emission wavelengths was measured on an EnVision (Perkin Elmer) plate reader. […]
Records with an inconclusive call do not appear. Active and inactive are the calls of the source. Calls come from the whole dose curve; as a rule, active = well fitted inhibition curve with a large enough effect; inconclusive = small, poorly fitted or top-dose-only effect; inactive = flat fitted curve, though single readings scatter.
Return exactly one item of class 1 (active), class 0 (inactive)

Observe how each entry below is paired with its result.
compound=CC(=O)[O][Hg][c]1ccccc1 answer_label="class 1"
compound="NC1=NC(=O)N2CC12 (stereo not given)" answer_label="class 0"
compound="CC(C)NC(C)Cc1ccc(I)cc1 (stereo not given)" answer_label="class 0"
compound="CN1C2CCC1CC(OC(=O)c1cc(Cl)cc(Cl)c1)C2 (stereo not given)" answer_label="class 0"

Shift focus to the following entry.
Query string: For `CCCCCCCCCCCCCCCC[N+](C)(C)C` , which call appears in the assay record?
Result string: class 1
